Data credit: the supplement of paper PMC6555819

Tested on: PPARg:RXRa DBDmut IVT, anti-RXR (DBD mutation: RXRa K156A/R161A, NR concentration 270 nM, RXRa partner concentration 90 nM)
measurement notes: PBM binding z-score (relative to random genomic background probes); higher = stronger binding; sequences stand for … in GC…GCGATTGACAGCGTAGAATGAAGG
measurement type: PBM binding z-score

>>> reported_value("TAGCCTAGGTCATGAGCCAGTATACCACGCGAAC")
1.81
>>> reported_value("TCATATAGGTAAATGCTAGGGGAAAGTCCGATCT")
4.25
>>> reported_value("TCGAGAAGGTTAGTCGGGGCATTCAGCCAACATA")
1.32
>>> reported_value("CCTACTGGGCCAAAGGTCATCGATTCCAATGCTC")
4.64
>>> reported_value("AGTCAAAGTTCACTAGGTAACTTAAGATTCAGCT")
2.47
>>> reported_value("TCTTGTAGATCAGCAGGTTAAGCAAGCTGGCCAA")
1.37
>>> reported_value("TCATATAGGTAAAGGTGAAAGTTGAACGATATGA")
4
>>> reported_value("ATGTCTAGGTAACCAAGTTCAGTGAATGCCGAAC")
2.35
>>> reported_value("GCAGACAGGTGGAACGCAGGTAACTCAGGGTGGC")
-0.523
>>> reported_value("TCTTGTAGATCAAGCAGGTCAAGAAAGCCTGAGT")
1.73
>>> reported_value("TAGCCTAGGTCAGATCGGCCCAGTATACGCTATA")
0.85
>>> reported_value("CGTCAAAGTCCAACTAAGGTAACGTAAAGCACGC")
0.179

###

Tested on: VDR homodimer (NR concentration 270 nM)
measurement notes: PBM binding z-score (relative to random genomic background probes); higher = stronger binding; sequences stand for … in GC…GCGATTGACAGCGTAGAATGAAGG
# PBM binding z-score per record follows
measurement type: PBM binding z-score

>>> reported_value("ATATGTAGGTTATCGGGTCATTCAGTTTGCGCAT")
4.34
>>> reported_value("ACTAGTTGGTCAGCTGAGGTCCCACACAATTCGG")
-0.00436
>>> reported_value("TTAATGAGGTTAAAGATCAGGGAACGTGGCGTCG")
1.14
>>> reported_value("ACTATTAGTTGACTTAGGGCAACCGCTACGACGC")
0.173
>>> reported_value("ATTGAAAGGTCGAAGGTGAGTATACCCACCCGAA")
0.982
>>> reported_value("CGTCCAAGGTCAGCATGTCAGTGAAAGCGACGTG")
0.761

###

Tested on: RXRa DBDmut IVT, anti-RXR (DBD mutation: RXRa K156A/R161A, NR concentration 90 nM)
measurement notes: PBM binding z-score (relative to random genomic background probes); higher = stronger binding; sequences stand for … in GC…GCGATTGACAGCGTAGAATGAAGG
measurement type: PBM binding z-score

>>> reported_value("CCGACTGGGGCAAAGGTTACCCTACTCAGTACGA")
-0.029
>>> reported_value("CCTACTGGGCCAAAAAGGTCAGTGATGCCGATAA")
-0.472
>>> reported_value("TGAATGAGGTTATAAGACCAGGGAACGTTGCAAA")
0.698
>>> reported_value("CGACCAAGGTCAAGGTCAGTGAAAGAGACTCGAA")
3.4
>>> reported_value("GCTCGGAGGACAAGGTCAGACCTTTGTCCGTAGA")
0.424
>>> reported_value("TCTAGTTGGTCAAAGGTGACACACTCGAAATGCG")
1.03
>>> reported_value("ACTATTAGTTGACTAAGGGCAACCGATACGACGC")
0.698
>>> reported_value("GCTTGCAGGCCATTTGGGTCACTCAATGACGGGC")
0.31
>>> reported_value("ACTAGCACGCCAAGGGTCACTCAAGATTAGTCCG")
1.02
>>> reported_value("TCTTGTAGATCAACAGGAGGTTACGAAAGATCGA")
0.347
>>> reported_value("ATCTCTAGGTAAAGATAGTTCAGCGAATGCAAAT")
-0.00603
>>> reported_value("CCTTACGGGTCACGAAGTTATAGCACGACGAGCG")
1.29

###

Tested on: PXR:RXRa (NR concentration 270 nM, RXRa partner concentration 90 nM)
measurement notes: PBM binding z-score (relative to random genomic background probes); higher = stronger binding; sequences stand for … in GC…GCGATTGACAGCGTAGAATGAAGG
# PBM binding z-score per record follows
measurement type: PBM binding z-score

>>> reported_value("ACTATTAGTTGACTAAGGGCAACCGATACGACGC")
0.652
>>> reported_value("CGAACTGGGTCAAGGACAGTGAATCTCCGCACGC")
1.28
>>> reported_value("AATACATGGTCATCGTAGGCCAGAGTACGCACAG")
0.3
>>> reported_value("CTCGAAAGGTCGTGCTCAGGTGAGCATACCAAAC")
3.43
>>> reported_value("AGAAGGAGGGCAATGAGTTGATAGCACGGGTGGC")
1.39
>>> reported_value("AGAATGAGCTTAAGATCAGGGAAACAGAATACAT")
-0.393
>>> reported_value("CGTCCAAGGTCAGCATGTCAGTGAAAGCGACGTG")
2.41
>>> reported_value("ACTAGCAGGCCTAGGGTCACTCAAGATTAGTCCG")
2.65
>>> reported_value("ATCTCTAGGTAAAGTTCAGTGGAAGATCGATAGA")
2.07
>>> reported_value("CATCCAGGGTCAGCTAGGCCAGAGTAGGGACGGC")
2.31
>>> reported_value("CGAACTAGGTCATTGACAGGACAGTGACTAGTAA")
1.81
>>> reported_value("ACTATTAGTGGACTTAGGGCAACCGATACGACGC")
-0.184
>>> reported_value("TGAATGAGGTTATCAGATCAGGGAACGTTGCAAA")
0.942
>>> reported_value("ACTAGCAGGCCACGTTTGGGTCACTCAAACAAAG")
0.56
>>> reported_value("GCTTGTAGATCAAGGTAAAGAAAGACTAAGCTAA")
-0.53
>>> reported_value("CCTATTAGTTGACCATAAGGGCGACCGAAGCTCG")
0.235
>>> reported_value("CGAACTAGATCATCCAGGACAGTGAATACATTGA")
-0.222
>>> reported_value("CATACAGGGTGAGCTAGGCCAGAGTAGGGACGGC")
-0.394
>>> reported_value("GCAGACAGGTGAAACGCAGGTAACCCAGGGTGGC")
-0.365
>>> reported_value("CCTATTAGTTGACCATGAGGGCAACCGAAGCTCG")
1.48
>>> reported_value("ATCTCTAGATAAAGTTCAGTGAAAGATCGATAGA")
1.36
>>> reported_value("TCGACTAGGTTAGTCGGGGCATTCAGCCAACATA")
0.117
>>> reported_value("CCTGCTAGGTAATGGTCAGCTAATCTACAGTATG")
-0.534
>>> reported_value("CCTTACGGGTCATGGTTATAGCACGGGTGGTACG")
2.96
>>> reported_value("TAGCCTAGGTCATGCGGGCTAGTATAGTGTCGGC")
1.07
>>> reported_value("TTACCAAGGTGAAAGGTCGTGGATGCACGCCTTG")
4.12
>>> reported_value("CCTAGCAGGCCGATCTGGGTCACTCAAGGCTTGA")
0.634
>>> reported_value("CCTTGGAGGACAACAGGAGGTCAGAGCTGCCAGA")
1.97

###

System: RARg:RXRa (NR concentration 270 nM, RXRa partner concentration 90 nM)
measurement notes: PBM binding z-score (relative to random genomic background probes); higher = stronger binding; sequences stand for … in GC…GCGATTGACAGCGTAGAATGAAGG
# PBM binding z-score per record follows
measurement type: PBM binding z-score

>>> reported_value("ATCTGTAGGTTAGCTGGGGTCATTCAGACTAGGC")
4.01
>>> reported_value("CTCGAAAGGTCGTGCTCAGCTGAGTATACCAAAC")
4.28
>>> reported_value("ACAGACAGGTGAGTGAAGGTAACGCAGCTGGACG")
0.259
>>> reported_value("CCAGACAGGTGAAAGGTAATTCAGTCTGGTACGC")
1.04
>>> reported_value("ACCAGTTGGTCAGCTGAGGTCACACACAATTCGG")
4.2
>>> reported_value("TCGATTAGGTTAGGGGCATTCAGAATGGCGTCGA")
0.511
>>> reported_value("GCTAGATGGTCAGTAAAAGGTCACACACCGGTCG")
5.52
>>> reported_value("GCTATTAGATGAAAGGGCAACCGAATGATTCTCG")
0.991
>>> reported_value("GTTAGTTGGTCAGTAAAAGGTCACACACCGGTCG")
5.67
>>> reported_value("CCTTACGGGTCACGAGGGTATAGCACGACGAGCG")
5.85
>>> reported_value("TCTTGTAGATCAAAGGTTAAGCAAGCCGAAGCCT")
1.98
>>> reported_value("CGAACTAGGTCATTGACAGGACATTGAATAGTAA")
4.62
